Overview of recorded MIC50 for various compounds
System: Saccharomyces cerevisiae
Experiment Summary: Antifungal activity against Saccharomyces cerevisiae after 48 hrs by broth microdilution method
Format: functional

# Compound, Target Of Assay, Value Unit, MIC50
rows = [
    ("C[C@@H](c1nc(-c2ccc(C#N)cc2)cs1)[C@](O)(Cn1cncn1)c1cc(F)ccc1F [ISAVUCONAZOLE]", "Saccharomyces cerevisiae", "µg/mL", 0.03),
    ("OC(Cn1cncn1)(Cn1cncn1)c1ccc(F)cc1F [FLUCONAZOLE]", "Saccharomyces cerevisiae", "µg/mL", 4),
    ("C[C@@H](c1ncncc1F)[C@](O)(Cn1cncn1)c1ccc(F)cc1F [VORICONAZOLE]", "Saccharomyces cerevisiae", "µg/mL", 0.125),
    ("CC[C@@H]([C@H](C)O)n1ncn(-c2ccc(N3CCN(c4ccc(OC[C@@H]5CO[C@@](Cn6cncn6)(c6ccc(F)cc6F)C5)cc4)CC3)cc2)c1=O [POSACONAZOLE]", "Saccharomyces cerevisiae", "µg/mL", 1),
]
